Please go through the items and note down their chromatographic logP.
assay: logP by LC-MS on reversed-phase columns (C 18), method [c], neutral range pH 7.8; format: physicochemical; conditions: pH 7.8
Answers are plain numbers.

| molecule | readout.name | experimental.result |
| --- | --- | --- |
| CCOC(COCc1cccc(Nc2ncc(C(F)(F)F)c(NC3CC3)n2)c1)OCC [Example 238] | chromatographic logP | 4.09 |
| CC[S+]([O-])C(C)c1cccc(Nc2ncc(Cl)c(NC3CCC3)n2)c1 (stereo not drawn) [Example 76] | chromatographic logP | 2.53 |
| CCCCS(=O)(=O)c1cccc(Nc2ncc(Br)c(NC3CCC3)n2)c1 [Example 151] | chromatographic logP | 3.88 |
| CCS(=O)(=O)c1cccc(Nc2ncc(Br)c(NC3CCC3)n2)c1 [Example 111] | chromatographic logP | 3.06 |
| CCCC[S+]([O-])c1cccc(Nc2ncc(C(F)(F)F)c(NC3CC3)n2)c1 (stereo not drawn) [Example 122] | chromatographic logP | 3.02 |

[in] Need chromatographic logP of CCCSc1cccc(Nc2ncc(C(F)(F)F)c(NC3CCC3)n2)c1 [Example 155] , thanks.
[out] 5.43

This collection of values is drawn from patent US20110245284A1.
